pIC50 listing for selected molecules.
target: Myc proto-oncogene protein (Homo sapiens, UniProt P01106)
Sequence (P01106 whole entry): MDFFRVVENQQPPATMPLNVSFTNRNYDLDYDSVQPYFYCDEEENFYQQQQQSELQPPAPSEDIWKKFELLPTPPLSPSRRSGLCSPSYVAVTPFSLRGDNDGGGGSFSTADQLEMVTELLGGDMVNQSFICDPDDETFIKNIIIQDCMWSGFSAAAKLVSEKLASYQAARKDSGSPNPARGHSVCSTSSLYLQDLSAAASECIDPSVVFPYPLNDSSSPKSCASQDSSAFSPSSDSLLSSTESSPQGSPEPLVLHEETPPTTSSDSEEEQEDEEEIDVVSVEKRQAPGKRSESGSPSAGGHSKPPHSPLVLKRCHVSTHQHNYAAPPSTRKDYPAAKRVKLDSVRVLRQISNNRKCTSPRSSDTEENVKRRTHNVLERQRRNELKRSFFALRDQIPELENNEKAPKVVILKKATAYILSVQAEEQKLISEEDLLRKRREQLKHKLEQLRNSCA
assay_procedure: Inhibition of human c-Myc assessed as reduction in c-Myc/Max/Ebox DNA complex formation using pre-formed complex of c-Myc and biotinylated DNA containing single Ebox-sequence followed by compound addition and further addition of his6-tagged c-Max and incubated for 2 hrs by AlphaScreen assay
pIC50: −log10 of the molar value.

{"entry_smiles": "COCCNCCC(=O)Nc1sc2c(c1-c1nc3ccc(-c4c(C)n[nH]c4C)cc3s1)CCNC2", "target": "Myc proto-oncogene protein (Homo sapiens, UniProt P01106)", "endpoint": "pIC50", "reading": "< 5.00"}

With those in mind, consider the next molecule.
Report pIC50 for COCCNCCC(=O)Nc1sc2c(c1-c1nc3ccc(-c4cncc(C)c4)cc3s1)CCNC2 please.
5.00 to 6.00

Origin of the recorded values: ChEMBL document CHEMBL4476874
